Reported pIC50 values follow for various molecules
- SYSTEM: E. coli GroEL/ES (Escherichia coli)
- Construct: made in house; host or cells: GroEL in E. coli DH5α; GroES in E. coli BL21 (DE3)
- Sequence (P0A6F5 2-548): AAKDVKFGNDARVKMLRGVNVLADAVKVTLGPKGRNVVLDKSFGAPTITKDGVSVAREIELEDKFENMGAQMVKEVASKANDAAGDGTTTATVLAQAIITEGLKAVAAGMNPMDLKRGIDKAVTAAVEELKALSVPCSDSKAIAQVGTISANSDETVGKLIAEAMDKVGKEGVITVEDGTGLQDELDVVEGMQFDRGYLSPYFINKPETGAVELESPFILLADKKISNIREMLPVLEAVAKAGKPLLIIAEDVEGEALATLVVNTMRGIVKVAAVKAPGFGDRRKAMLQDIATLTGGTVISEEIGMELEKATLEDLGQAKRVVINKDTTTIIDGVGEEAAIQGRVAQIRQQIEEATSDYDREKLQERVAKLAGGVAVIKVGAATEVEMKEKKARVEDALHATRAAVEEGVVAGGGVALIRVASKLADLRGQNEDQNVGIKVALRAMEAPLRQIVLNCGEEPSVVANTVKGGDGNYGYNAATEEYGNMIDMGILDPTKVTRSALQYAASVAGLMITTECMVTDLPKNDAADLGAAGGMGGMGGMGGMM
- PROTOCOL TEXT: GroEL/ES-mediated dRho refolding assay
- Assay type: biochemical
pIC50: −log10 of the molar value.
TEST READOUT: pIC50

INSERT INTO results (molecule, test_readout, reported_result) VALUES
  ('COc1c(Br)cccc1C(=O)Nc1ccc(Sc2nc3ccccc3s2)c(Cl)c1', 'pIC50', '< 4.00'),
  ('COc1c(Br)cc(Br)cc1C(=O)Nc1cccc(Cl)c1', 'pIC50', '< 4.00'),
  ('COc1ccccc1C(=O)Nc1cccc(Cl)c1 [Compound 40, N-(3-Chlorophenyl)-2-methoxybenzamide]', 'pIC50', '< 4.00');
